Biological target: PDE peak A (PDE5) from SW-480 cells (Homo sapiens)
Construct: SW-480 cells are collected and homogenized; The homogenate is centrifuged, and the supernatant is loaded onto a DEAE-Trisacryl M column; endogenous in cells
Experiment: cGMP hydrolysis by PDE peak A
Details: cGMP hydrolysis, 0.25 μM 3H-cGMP substrate
pIC50: −log10 of the molar value.
quantity.name: pIC50

Ask: Read off the recorded pIC50 for CCCCCC[C@@H]([C@@H](C)O)n1cnc2c(N)ncnc21 (racemic) [EHNA]
Result: < 4.00
